Biological target: Cytochrome P450 2C9 (Homo sapiens)
Test: Cytochrome P450 Family 2 Subfamily C Member 9 (CYP2C9) small molecule antagonists: luciferase reporter qHTS assay (AID 1671198); further: nearly all actives have a fitted effect of over 50% in size; further: potency means the concentration at half of the fitted maximal effect
Details: P450-Glo CYP2C9 enzyme assay, luciferin luminescence; series mostly up to 115 µM
Inconclusive results are not listed. Active and inactive are the calls of the source. The call rests on the fitted dose curve; in most records, active means well fitted inhibition curve with a large enough effect in the repeat runs; inconclusive means weak or mixed curves; inactive means no such curve, though single readings can be large or run the other way.
readout: Potency

[[record]]
compound = "C(CCOCC1CO1)COCC1CO1 (centres undefined)"
readout = "Potency"
observed_result = "inactive"

[[record]]
compound = "CC(CCc1ccccc1)NC(C)C(O)c1ccc(O)cc1 (centres undefined)"
readout = "Potency"
observed_result = "inactive"

[[record]]
compound = "CCOP(=S)(Oc1cnc(C(C)(C)C)nc1)OC(C)C (centres undefined)"
readout = "Potency"
observed_result = "1.59 µM (active)"

[[record]]
compound = "O=C(Oc1ccc(Br)cc1)N1CCN2CCC1CC2"
readout = "Potency"
observed_result = "inactive"

[[record]]
compound = "CCS(=O)(=O)C(C)(C)S(=O)(=O)CC"
readout = "Potency"
observed_result = "inactive"

[[record]]
compound = "CC1COC2(c3ccccc3Cl)c3cc(Cl)ccc3NC(=O)CN12 (centres undefined)"
readout = "Potency"
observed_result = "27.5 µM (active)"

[[record]]
compound = "OC(c1ccc(F)cc1)(c1cncnc1)c1ccccc1Cl (centres undefined)"
readout = "Potency"
observed_result = "20 µM (active)"

[[record]]
compound = "NC(=S)C(N)=S"
readout = "Potency"
observed_result = "79.6 µM (active)"

[[record]]
compound = "CCC/C(=N\\OCC)C1=C(O)CC(CC(C)SCC)CC1=O (centres undefined)"
readout = "Potency"
observed_result = "31.9 µM (active)"

[[record]]
compound = "CCCCc1c(C)nc(NCC)[nH]c1=O"
readout = "Potency"
observed_result = "inactive"

[[record]]
compound = "CC(=O)C(Cl)Cl"
readout = "Potency"
observed_result = "inactive"

[[record]]
compound = "O=C(Nc1ccccc1)N(Cc1ccc(Cl)cc1)C1CCCC1"
readout = "Potency"
observed_result = "15.9 µM (active)"

[[record]]
compound = "CC(C)(C)NCC(O)c1cc(Cl)c(N)c(Cl)c1 (centres undefined)"
readout = "Potency"
observed_result = "inactive"

[[record]]
compound = "ClCC(Cl)(Cl)Cl"
readout = "Potency"
observed_result = "inactive"

[[record]]
compound = "COC(=O)C(C)Oc1ccc(Oc2ccc(Cl)cc2Cl)cc1 (centres undefined)"
readout = "Potency"
observed_result = "31.7 µM (active)"

[[record]]
compound = "CC(=O)Nc1cc([As](=O)(O)O)ccc1O"
readout = "Potency"
observed_result = "inactive"

[[record]]
compound = "COP(=S)(OC)Oc1ccc(S(N)(=O)=O)cc1"
readout = "Potency"
observed_result = "3.47 µM (active)"

[[record]]
compound = "ClC(Cl)(Cl)C(Cl)(Cl)Cl"
readout = "Potency"
observed_result = "inactive"

[[record]]
compound = "C#C[C@]1(O)C=C[C@H]2[C@@H]3CCC4=CC(=O)CC[C@@H]4[C@H]3CC[C@@]21CC"
readout = "Potency"
observed_result = "4.9 µM (active)"

[[record]]
compound = "CC(C=O)Cc1ccc2c(c1)OCO2 (centres undefined)"
readout = "Potency"
observed_result = "15.9 µM (active)"

[[record]]
compound = "CCCCCCI"
readout = "Potency"
observed_result = "inactive"

[[record]]
compound = "c1ccc(N2CCNCC2)cc1"
readout = "Potency"
observed_result = "inactive"

[[record]]
compound = "CN(N=O)C(N)=O"
readout = "Potency"
observed_result = "inactive"

[[record]]
compound = "CCCCC(=O)Cl"
readout = "Potency"
observed_result = "inactive"

[[record]]
compound = "CC1(C)COP(Oc2ccccc2)OC1"
readout = "Potency"
observed_result = "inactive"

[[record]]
compound = "O=[N+]([O-])c1cccc2c([N+](=O)[O-])cccc12"
readout = "Potency"
observed_result = "40.1 µM (active)"

[[record]]
compound = "N#CC(CCc1ccc(Cl)cc1)(Cn1cncn1)c1ccccc1 (centres undefined)"
readout = "Potency"
observed_result = "2.24 µM (active)"

[[record]]
compound = "CS(=O)(=O)c1cc(C(F)(F)F)ccc1C(=O)c1cnoc1C1CC1"
readout = "Potency"
observed_result = "1.59 µM (active)"

[[record]]
compound = "CCN(CC)CCOC(=O)C(C)(c1ccccc1)c1ccccc1"
readout = "Potency"
observed_result = "12.3 µM (active)"

